assay: Stability of the compounds in aqueous solution (percent residue by high pressure liquid chromatography); assay type: physicochemical; settings: Time 48 (time unit not given); 0.5 (w/w) % in water, 40°±1° C.
Structures can show the parent of a compound that is named as a salt.
observable: Percent residue in aqueous solution (%)
The reply should contain only the number, in %.

INSERT INTO results (molecule, observable, observed_measurement) VALUES
  ('N=C(N)Nc1ccc(CCCC(=O)NCC(=O)NCCCCNCCCN)cc1 [Compound 2, trihydrochloride]', 'Percent residue in aqueous solution', 99.8),
  ('N=C(N)NCc1cccc(CCC(=O)N[C@@H](CO)C(=O)NCCCCNCCCN)c1 [Compound 5, trihydrochloride]', 'Percent residue in aqueous solution', 99.6),
  ('N=C(N)Nc1ccc(CCCCC(=O)N[C@@H](CO)C(=O)NCCCCNCCCN)cc1 [Compound 6, trihydrochloride]', 'Percent residue in aqueous solution', 99.7),
  ('N=C(N)NCc1ccc(CCC(=O)N[C@@H](CO)C(=O)NCCCCNCCCN)cc1 [Compound 3, trihydrochloride]', 'Percent residue in aqueous solution', 99.8),
  ('N=C(N)NCCCc1ccc(C(=O)N[C@@H](CO)C(=O)NCCCCNCCCN)cc1 [Compound 4, trihydrochloride]', 'Percent residue in aqueous solution', 99.6),
  ('N=C(N)Nc1ccc(CCCC(=O)N[C@@H](CO)C(=O)NCCCCNCCCN)cc1 [Compound 1, trihydrochloride]', 'Percent residue in aqueous solution', 99.8);

Q. Output measured Percent residue in aqueous solution for this item: N=C(N)NCCCc1ccc(C(=O)NCC(=O)NCCCCNCCCN)cc1 [Compound 7, trihydrochloride]
A. 100

Q. For the molecule N=C(N)NCc1ccccc1CCCCC(=O)N[C@@H](CO)C(=O)NCCCCNCCCN [Compound 8, trihydrochloride] , give its reported Percent residue in aqueous solution.
A. 99.5

Q. Annotate the molecule N=C(N)NCc1ccc(CCC(=O)N[C@@H](CO)C(=O)NCCCCNCCCN)c(Cl)c1 [Compound 9, trihydrochloride] with its measured Percent residue in aqueous solution.
A. 99.7

---

assay: Stability of the compounds in aqueous solution (percent residue by high pressure liquid chromatography); assay type: physicochemical; settings: Time 24 (time unit not given); 0.5 (w/w) % in water, 40°±1° C.
Where a name gives a salt, the structure may show the parent alone.
observable: Percent residue in aqueous solution
Give the number first and the unit second.

For orientation, consider the following solved cases.
INSERT INTO assay_data (compound, observed_measurement) VALUES
  ('N=C(N)NCc1ccc(CCC(=O)N[C@@H](CO)C(=O)NCCCCNCCCN)c(Cl)c1 [Compound 9, trihydrochloride]', '99.8%'),
  ('N=C(N)Nc1ccc(CCCCC(=O)N[C@@H](CO)C(=O)NCCCCNCCCN)cc1 [Compound 6, trihydrochloride]', '99.8%'),
  ('N=C(N)Nc1ccc(CCCC(=O)NCC(=O)NCCCCNCCCN)cc1 [Compound 2, trihydrochloride]', '99.9%'),
  ('N=C(N)NCc1ccc(CCC(=O)N[C@@H](CO)C(=O)NCCCCNCCCN)cc1 [Compound 3, trihydrochloride]', '99.5%');

Q. Give a short answer stating reported Percent residue in aqueous solution for N=C(N)Nc1ccc(CCCC(=O)N[C@@H](CO)C(=O)NCCCCNCCCN)cc1 [Compound 1, trihydrochloride] .
A. 99.6%

---

assay: Stability of the compounds in aqueous solution (percent residue by high pressure liquid chromatography); assay type: physicochemical; settings: Time 72 (time unit not given); 0.5 (w/w) % in water, 40°±1° C.
Where a name gives a salt, the structure may show the parent alone.
Documented Percent residue in aqueous solution across a set of molecules
Give the quantity in %, number only.

As a guide, the following entries are already answered.
INSERT INTO measurements (molecule, observed_measurement) VALUES
  ('N=C(N)NCc1ccc(CCC(=O)N[C@@H](CO)C(=O)NCCCCNCCCN)cc1 [Compound 3, trihydrochloride]', 99.6),
  ('N=C(N)NCCCc1ccc(C(=O)NCC(=O)NCCCCNCCCN)cc1 [Compound 7, trihydrochloride]', 100),
  ('N=C(N)Nc1ccc(CCCC(=O)NCC(=O)NCCCCNCCCN)cc1 [Compound 2, trihydrochloride]', 99.9);

Q. Report measured Percent residue in aqueous solution; entry is N=C(N)NCc1cccc(CCC(=O)N[C@@H](CO)C(=O)NCCCCNCCCN)c1 [Compound 5, trihydrochloride]
A. 99.9

Q. Provide measured Percent residue in aqueous solution value, entry: N=C(N)NCCCc1ccc(C(=O)N[C@@H](CO)C(=O)NCCCCNCCCN)cc1 [Compound 4, trihydrochloride]
A. 99.7

Q. // fetch Percent residue in aqueous solution given entry N=C(N)NCc1ccccc1CCCCC(=O)N[C@@H](CO)C(=O)NCCCCNCCCN [Compound 8, trihydrochloride]
A. 99.8

Q. Give the measured Percent residue in aqueous solution for N=C(N)NCc1ccc(CCC(=O)N[C@@H](CO)C(=O)NCCCCNCCCN)c(Cl)c1 [Compound 9, trihydrochloride]
A. 100

Q. Tell me its Percent residue in aqueous solution given N=C(N)Nc1ccc(CCCCC(=O)N[C@@H](CO)C(=O)NCCCCNCCCN)cc1 [Compound 6, trihydrochloride] as the entry.
A. 99.7

Q. Quote Percent residue in aqueous solution reported for N=C(N)Nc1ccc(CCCC(=O)N[C@@H](CO)C(=O)NCCCCNCCCN)cc1 [Compound 1, trihydrochloride] please.
A. 99.5

---

test: Stability of the compounds in aqueous solution (percent residue by high pressure liquid chromatography); assay type: physicochemical; conditions: Time 120 (time unit not given); 0.5 (w/w) % in water, 40°±1° C.
Where a name gives a salt, the structure may show the parent alone.
Percent residue in aqueous solution values for the compounds below.
# output: bare number, implied unit %

Would you please look over these solved cases?
INSERT INTO results (compound, measure_unit, observed_measurement) VALUES
  ('N=C(N)NCc1cccc(CCC(=O)N[C@@H](CO)C(=O)NCCCCNCCCN)c1 [Compound 5, trihydrochloride]', '%', 99.6),
  ('N=C(N)Nc1ccc(CCCCC(=O)N[C@@H](CO)C(=O)NCCCCNCCCN)cc1 [Compound 6, trihydrochloride]', '%', 99.5),
  ('N=C(N)NCCCc1ccc(C(=O)NCC(=O)NCCCCNCCCN)cc1 [Compound 7, trihydrochloride]', '%', 99.9),
  ('N=C(N)Nc1ccc(CCCC(=O)N[C@@H](CO)C(=O)NCCCCNCCCN)cc1 [Compound 1, trihydrochloride]', '%', 99.6),
  ('N=C(N)NCCCc1ccc(C(=O)N[C@@H](CO)C(=O)NCCCCNCCCN)cc1 [Compound 4, trihydrochloride]', '%', 99.9);

Q. Please give the documented Percent residue in aqueous solution of N=C(N)NCc1ccc(CCC(=O)N[C@@H](CO)C(=O)NCCCCNCCCN)cc1 [Compound 3, trihydrochloride]
A. 99.6

Q. Retrieve Percent residue in aqueous solution measured for N=C(N)NCc1ccc(CCC(=O)N[C@@H](CO)C(=O)NCCCCNCCCN)c(Cl)c1 [Compound 9, trihydrochloride] and print it.
A. 99.5

Q. Quickly give me recorded Percent residue in aqueous solution for N=C(N)Nc1ccc(CCCC(=O)NCC(=O)NCCCCNCCCN)cc1 [Compound 2, trihydrochloride]
A. 100

Q. Check the records and state Percent residue in aqueous solution for N=C(N)NCc1ccccc1CCCCC(=O)N[C@@H](CO)C(=O)NCCCCNCCCN [Compound 8, trihydrochloride]
A. 99.7

---

Entries and their Percent residue in aqueous solution values follow.
experiment: Stability of the compounds in aqueous solution (percent residue by high pressure liquid chromatography); assay type: physicochemical; details: Time 168 (time unit not given); 0.5 (w/w) % in water, 40°±1° C.
Where a name gives a salt, the structure may show the parent alone.
// units = %; emit number, no label

INSERT INTO results (compound, observed_measurement) VALUES
  ('N=C(N)NCCCc1ccc(C(=O)NCC(=O)NCCCCNCCCN)cc1 [Compound 7, trihydrochloride]', 99.7),
  ('N=C(N)NCCCc1ccc(C(=O)N[C@@H](CO)C(=O)NCCCCNCCCN)cc1 [Compound 4, trihydrochloride]', 99.5),
  ('N=C(N)NCc1ccc(CCC(=O)N[C@@H](CO)C(=O)NCCCCNCCCN)cc1 [Compound 3, trihydrochloride]', 99.8),
  ('N=C(N)Nc1ccc(CCCC(=O)NCC(=O)NCCCCNCCCN)cc1 [Compound 2, trihydrochloride]', 99.8);

Q. Tell me measured Percent residue in aqueous solution for N=C(N)Nc1ccc(CCCCC(=O)N[C@@H](CO)C(=O)NCCCCNCCCN)cc1 [Compound 6, trihydrochloride] please.
A. 100

Q. Please give the documented Percent residue in aqueous solution of N=C(N)NCc1cccc(CCC(=O)N[C@@H](CO)C(=O)NCCCCNCCCN)c1 [Compound 5, trihydrochloride]
A. 99.8

Q. Please supply the value of reported Percent residue in aqueous solution for the item N=C(N)NCc1ccc(CCC(=O)N[C@@H](CO)C(=O)NCCCCNCCCN)c(Cl)c1 [Compound 9, trihydrochloride]
A. 99.6

Q. Give the measured Percent residue in aqueous solution for N=C(N)NCc1ccccc1CCCCC(=O)N[C@@H](CO)C(=O)NCCCCNCCCN [Compound 8, trihydrochloride]
A. 99.8

Q. Give recorded Percent residue in aqueous solution. N=C(N)Nc1ccc(CCCC(=O)N[C@@H](CO)C(=O)NCCCCNCCCN)cc1 [Compound 1, trihydrochloride]
A. 99.5
